Target: 17β-hydroxysteroid dehydrogenase type 2 (17β-HSD type 2) (Homo sapiens)
Construct: expressed in transfected cells; host or cells: MCF-7
Experiment: Inhibition of 17β-HSD type 2 in MCF-7 cells stably expressing the isoenzyme (tritium labeled estradiol conversion, HPLC)
Assay type: cell-based
Conditions: MCF7; 10 μM test compound; MCF-7 cells expressing 17β-HSD type 2; 2 nM tritium labeled estradiol; read-out: % Inhibition HSD2 10 μM
Outcome Measure: inhibition at 10 µM (%)

Molecule	Study System	Unit Tag	inhibition at 10 µM
COCc1nc2sc3c(c2c(=O)n1-c1ccccc1)CCCC3	17β-hydroxysteroid dehydrogenase type 2 (17β-HSD type 2) (Homo sapiens)	%	28.7

(a) COc1cc(-c2nc3sc4c(c3c(=O)n2Cc2ccccc2)CCC(Br)(Br)C4=O)c(Br)c(OC)c1OC
(b) COc1cc(-c2nc3sc4c(c3c(=O)n2Cc2ccccc2)CCC(Cl)C4=O)c(Cl)c(OC)c1OC (stereo not drawn)
-- ask When a and b are compared, which has the higher number for inhibition at 10 µM? Kindly state the label of the option you pick.
-- reply b

* * *

Target: 17β-hydroxysteroid dehydrogenase type 1 (17β-HSD type 1) (Homo sapiens)
Construct: expressed in transfected cells; host or cells: MCF-7
Sequence (P14061 whole entry): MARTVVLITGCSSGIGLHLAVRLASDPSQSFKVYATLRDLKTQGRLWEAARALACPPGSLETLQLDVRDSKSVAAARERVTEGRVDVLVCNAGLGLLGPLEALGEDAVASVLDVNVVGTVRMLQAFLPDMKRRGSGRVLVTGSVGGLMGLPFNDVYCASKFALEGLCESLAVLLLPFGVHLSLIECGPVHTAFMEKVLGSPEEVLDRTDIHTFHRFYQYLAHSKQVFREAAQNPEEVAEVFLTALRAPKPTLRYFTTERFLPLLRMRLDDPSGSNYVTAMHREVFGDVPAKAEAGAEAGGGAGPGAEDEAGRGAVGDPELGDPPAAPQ
Assay: Inhibition of 17β-HSD type 1 in MCF-7 cells stably expressing the isoenzyme (tritium labeled estrone conversion, HPLC)
Format: cell-based
Conditions: MCF7; 1 μM test compound; MCF-7 cells expressing 17β-HSD type 1; 2 nM tritium labeled estrone; read-out: % Inhibition HSD1 1 μM
Source text: Biological Testing Materials and Methods 1. Inhibition of the 17β-hydroxysteroid dehydrocienase type 1, type 2 and type 3 enzyme The compounds were screened in respect of 17β-HSD enzyme activity in vitro on established MCF-7 cell lines, each stably expressing one of the respective 17β-HSD isoenzymes. The interconversion of substrate by each isoenzyme and the 17β-HSD inhibiting activity of chemical compounds in these cell lines were detected by HPLC system. […]
Outcome Measure: inhibition at 1 µM (%)

COc1ccc(-c2nc3sc4c(c3c(=O)n2Cc2ccccc2)CCCC4)cc1 6.3
COc1cccc(-c2nc3sc4c(O)cccc4c3c(=O)n2Cc2ccccc2)c1 25.4

(I) COc1cc(-c2nc3sc4c(O)cccc4c3c(=O)n2Cc2ccccc2)c(Cl)c(OC)c1OC
(II) COCc1nc2sc3c(c2c(=O)n1Cc1ccccc1)CCCC3
(III) COCCn1c(-c2cccs2)nc2sc3c(O)c(Br)ccc3c2c1=O
(IV) COc1cc(-c2nc3sc4c(c3c(=O)n2Cc2ccccc2)CCC(C=O)=C4Cl)cc(OC)c1OC
-- ask Arrange the 4 entries by inhibition at 1 µM so the values rise. Output spec: labels arranged per the requested ranking.
-- reply IV, II, III, I

* * *

Molecular target: 17β-hydroxysteroid dehydrogenase type 3 (17β-HSD type 3) (Homo sapiens)
Construct: expressed in transfected cells; host or cells: MCF-7
Sequence (P37058 whole entry): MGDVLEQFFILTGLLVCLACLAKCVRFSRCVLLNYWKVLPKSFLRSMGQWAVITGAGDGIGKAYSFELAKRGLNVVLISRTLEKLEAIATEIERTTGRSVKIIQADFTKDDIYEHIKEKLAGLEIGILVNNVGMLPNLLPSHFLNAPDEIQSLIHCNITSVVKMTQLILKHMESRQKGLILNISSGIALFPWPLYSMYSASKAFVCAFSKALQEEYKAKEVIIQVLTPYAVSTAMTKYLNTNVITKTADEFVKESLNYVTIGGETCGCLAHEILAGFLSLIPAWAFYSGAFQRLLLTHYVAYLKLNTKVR
Experiment: Inhibition of 17β-HSD type 3 in MCF-7 cells stably expressing the isoenzyme (tritium labeled androstenedione conversion, HPLC)
Assay type: cell-based
Conditions: MCF7; 1 μM test compound; MCF-7 cells expressing 17β-HSD type 3; 2 nM tritium labeled androstenedione; read-out: % Inhibition HSD3 1 μM
Description: Biological Testing Materials and Methods 1. Inhibition of the 17β-hydroxysteroid dehydrocienase type 1, type 2 and type 3 enzyme The compounds were screened in respect of 17β-HSD enzyme activity in vitro on established MCF-7 cell lines, each stably expressing one of the respective 17β-HSD isoenzymes. The interconversion of substrate by each isoenzyme and the 17β-HSD inhibiting activity of chemical compounds in these cell lines were detected by HPLC system. […]
Outcome Measure: inhibition at 1 µM (%)

(P) CCC(C)Cn1c(-c2cc(OC)c(OC)c(OC)c2Br)nc2sc3c(c2c1=O)CCC(Br)(Br)C3=O (stereo not drawn) [No. 128]
(Q) COc1cc(-c2nc3sc4c(c3c(=O)n2CC(C)C)CCC(Br)C4=O)c(Br)c(OC)c1OC (stereo not drawn) [No. 116]
(R) CCCCn1c(-c2ccccc2OC)nc2sc3c(O)cccc3c2c1=O [No. 633]
-- ask Re-order the entries listed above so their inhibition at 1 µM values fall from first to last. Output spec: labels arranged per the requested ranking.
-- reply R, Q, P

* * *

Molecular target: 17β-hydroxysteroid dehydrogenase type 2 (17β-HSD type 2) (Homo sapiens, UniProt P37059)
Construct: expressed in transfected cells; host or cells: MCF-7
Sequence (P37059 whole entry): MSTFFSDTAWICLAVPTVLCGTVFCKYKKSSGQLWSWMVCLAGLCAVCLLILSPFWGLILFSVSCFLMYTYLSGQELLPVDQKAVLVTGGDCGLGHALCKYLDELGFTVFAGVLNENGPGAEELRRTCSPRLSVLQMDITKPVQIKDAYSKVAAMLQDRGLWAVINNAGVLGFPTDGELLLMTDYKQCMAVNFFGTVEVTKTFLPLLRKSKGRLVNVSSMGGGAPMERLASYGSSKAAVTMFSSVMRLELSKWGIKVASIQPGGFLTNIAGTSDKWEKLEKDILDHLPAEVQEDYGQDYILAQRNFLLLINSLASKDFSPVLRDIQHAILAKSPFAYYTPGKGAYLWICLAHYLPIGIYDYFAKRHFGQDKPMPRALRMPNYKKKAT
Assay: Inhibition of 17β-HSD type 2 in MCF-7 cells stably expressing the isoenzyme (tritium labeled estradiol conversion, HPLC)
Assay type: cell-based
Settings: MCF7; 1 μM test compound; MCF-7 cells expressing 17β-HSD type 2; 2 nM tritium labeled estradiol; read-out: % Inhibition HSD2 1 μM
Outcome Measure: inhibition at 1 µM (%)

Compound	Outcome Measure	Unit Tag	Endpoint Result
COc1cc(-c2nc3sc4c(c3c(=O)n2Cc2ccccc2)CCC(C=O)=C4Sc2ccccc2)cc(OC)c1OC [No. 8]	inhibition at 1 µM	%	4.9

(I) CCCCn1c(-c2cc(OC)c(OC)c(OC)c2)nc2sc3c(c2c1=O)CCC(Br)(Br)C3=O [No. 88]
(II) CCCCn1c(-c2cc(OC)c(OC)c(OC)c2Br)nc2sc3c(c2c1=O)CC(C)C(Br)C3=O (centres unmarked) [No. 693]
(III) COc1cccc(-c2nc3sc4c(c3c(=O)n2Cc2ccccc2)CCC(Br)C4=O)c1 (centres unmarked) [No. 80]
(IV) CCSc1c(C=O)ccc2c1sc1nc(-c3ccc(OC)cc3)n(Cc3ccccc3)c(=O)c12 [No. 18]
-- ask Arrange the 4 entries by inhibition at 1 µM so the values rise. Output spec: labels arranged per the requested ranking.
-- reply IV, II, I, III

* * *

Target: 17β-hydroxysteroid dehydrogenase type 2 (17β-HSD type 2) (Homo sapiens, UniProt P37059)
Construct: expressed in transfected cells; host or cells: MCF-7
Experiment: Inhibition of 17β-HSD type 2 in MCF-7 cells stably expressing the isoenzyme (tritium labeled estradiol conversion, HPLC)
Format: cell-based
Conditions: MCF7; 1 μM test compound; MCF-7 cells expressing 17β-HSD type 2; 2 nM tritium labeled estradiol; read-out: % Inhibition HSD2 1 μM
Outcome Measure: inhibition at 1 µM (%)

Known inhibition at 1 µM results, listed for orientation:
Compound	Unit Tag	inhibition at 1 µM
COc1cc(-c2nc3sc4ccccc4c3c(=O)n2Cc2ccccc2)c(Br)c(OC)c1OC	%	16.6
COc1cccc(-c2nc3sc4c(c3c(=O)n2Cc2ccccc2)CCCC4=O)c1	%	34.4
O=c1c2c3c(sc2nc(-c2ccccc2)n1Cc1ccccc1)CCCC3	%	18.8

(1) CCCCn1c(-c2cc(OC)c(OC)c(OC)c2)nc2sc3c(c2c1=O)CCCC3=O
(2) COc1cc(-c2nc3sc4c(c3c(=O)n2CC(C)C)CCC(Br)C4=O)c(Br)c(OC)c1OC (centres unmarked)
-- ask When 1 and 2 are compared, which has the higher number for inhibition at 1 µM? Kindly state the label of the option you pick.
-- reply 2

* * *

Biological target: 17β-hydroxysteroid dehydrogenase type 3 (17β-HSD type 3) (Homo sapiens)
Construct: expressed in transfected cells; host or cells: MCF-7
Experiment: Inhibition of 17β-HSD type 3 in MCF-7 cells stably expressing the isoenzyme (tritium labeled androstenedione conversion, HPLC)
Format: cell-based
Settings: MCF7; 1 μM test compound; MCF-7 cells expressing 17β-HSD type 3; 2 nM tritium labeled androstenedione; read-out: % Inhibition HSD3 1 μM
Outcome Measure: inhibition at 1 µM (%)

Known inhibition at 1 µM results, listed for orientation:
Compound	Study System	inhibition at 1 µM (%)
CCC(C)Cn1c(-c2cc(OC)c(OC)c(OC)c2)nc2sc3c(c2c1=O)CCCC3=O (stereo not drawn) [No. 126]	17β-hydroxysteroid dehydrogenase type 3 (17β-HSD type 3) (Homo sapiens)	8
CCCc1nc2sc3c(c2c(=O)n1Cc1cc(Br)ccc1OC)CCC(Br)C3=O (stereo not drawn) [No. 96]	17β-hydroxysteroid dehydrogenase type 3 (17β-HSD type 3) (Homo sapiens)	13
Cc1nc2sc3c(c2c(=O)n1-c1ccccc1)CCC(Br)C3=O (stereo not drawn) [No. 44]	17β-hydroxysteroid dehydrogenase type 3 (17β-HSD type 3) (Homo sapiens)	-22.5

(I) CCCc1nc2sc3c(OC(C)=O)cccc3c2c(=O)n1Cc1ccc(Br)o1 [No. 106]
(II) COc1cc(-c2nc3sc4c(c3c(=O)n2CC2CCCO2)CCC(Br)C4=O)c(Br)c(OC)c1OC (stereo not drawn) [No. 132]
-- ask When I and II are compared, which has the higher number for inhibition at 1 µM? Kindly state the label of the option you pick.
-- reply II
(II: 16.9%, I: 8.1%)

* * *

Target: 17β-hydroxysteroid dehydrogenase type 1 (17β-HSD type 1) (Homo sapiens)
Construct: expressed in transfected cells; host or cells: MCF-7
Assay: Inhibition of 17β-HSD type 1 in MCF-7 cells stably expressing the isoenzyme (tritium labeled estrone conversion, HPLC)
Type: cell-based
Conditions: MCF7; 1 μM test compound; MCF-7 cells expressing 17β-HSD type 1; 2 nM tritium labeled estrone; read-out: % Inhibition HSD1 1 μM
Outcome Measure: inhibition at 1 µM (%)

Molecule	Unit Tag	inhibition at 1 µM
COc1cc(-c2nc3sc4c(c3c(=O)n2CC(C)C)CCC(Br)C4=O)c(Br)c(OC)c1OC (stereo not drawn)	%	12.5
COc1ccc(-c2nc3sc4c(c3c(=O)n2-c2ccccc2)CCCC4=O)cc1	%	18.6

(a) CCSC1=C(C=O)CCc2c1sc1nc(-c3ccc(OC)cc3)n(Cc3ccccc3)c(=O)c21
(b) CCCc1nc2sc3c(c2c(=O)n1Cc1cc(Br)ccc1OC)CCC(Br)(Br)C3=O
(c) COCc1nc2sc3c(c2c(=O)n1-c1ccccc1)CCCC3=O
-- ask Arrange the 3 entries by inhibition at 1 µM so the values rise. Output spec: labels arranged per the requested ranking.
-- reply a, c, b

(P) CCCc1nc2sc3c(c2c(=O)n1Cc1cc(Br)ccc1OC)CCC(Br)C3=O (stereo not drawn)
(Q) COc1ccc(-c2nc3sc4c(c3c(=O)n2Cc2ccccc2)CCCC4=O)cc1
-- ask Which has the smaller recorded inhibition at 1 µM, P or Q ? Kindly state the label of the option you pick.
-- reply P
(P: 19.5%, Q: 28%)

(I) COc1cc(-c2nc3sc4c(c3c(=O)n2Cc2ccccc2)CCC(Cl)C4=O)c(Cl)c(OC)c1OC (stereo not drawn)
(II) COc1cc(-c2nc3sc4c(c3c(=O)n2Cc2ccco2)CCCC4)cc(OC)c1OC
-- ask Which has the smaller recorded inhibition at 1 µM, I or II ? Kindly state the label of the option you pick.
-- reply II
(II: 9.6%, I: 19.4%)

(I) COc1cc(-c2nc3sc4c(c3c(=O)n2Cc2cccnc2)CCCC4)cc(OC)c1OC
(II) CCSC1=C(CO)CCc2c1sc1nc(-c3ccc(OC)cc3)n(Cc3ccccc3)c(=O)c21
-- ask Which has the smaller recorded inhibition at 1 µM, I or II ? Kindly state the label of the option you pick.
-- reply II
(II: 10.2%, I: 23.5%)

Where these numbers come from: patent US7524853B2
